# STUDY TARGET: hGcgR (Homo sapiens, UniProt P47871)
# Sequence (P47871 26-477): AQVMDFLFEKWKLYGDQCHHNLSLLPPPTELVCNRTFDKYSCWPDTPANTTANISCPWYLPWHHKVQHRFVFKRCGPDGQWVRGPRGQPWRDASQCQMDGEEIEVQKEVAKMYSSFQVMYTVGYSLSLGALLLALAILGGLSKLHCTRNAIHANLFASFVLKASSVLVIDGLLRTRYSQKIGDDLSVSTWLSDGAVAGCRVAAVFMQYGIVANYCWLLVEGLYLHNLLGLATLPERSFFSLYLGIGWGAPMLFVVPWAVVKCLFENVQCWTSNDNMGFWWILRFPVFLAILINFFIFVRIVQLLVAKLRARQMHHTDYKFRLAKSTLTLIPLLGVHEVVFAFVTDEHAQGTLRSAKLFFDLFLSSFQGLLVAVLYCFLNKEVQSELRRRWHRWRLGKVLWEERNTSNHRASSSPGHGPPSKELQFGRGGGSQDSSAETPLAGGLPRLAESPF
# MEASUREMENT NOTES: Functional cAMP activation in the presence of 0.1% casein (no HSA);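 also: intracellular cAMP rise after 30 min at 37 °C, read by HTRF against a cAMP standard curve, scaled from buffer only (0%) to maximal control ligand response (100%)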
# Assay type: cell-based
# EXPERIMENTAL SETUP: read-out: Relative cAMP EC50, hGcgR
Starred links: 1 amine or outer side, 2 acyl side, 3 side chain; linkers in the order of their positions; H or OH if unused. Non-standard residues stand in square brackets, D forms with d. Groups on a side chain read outwards from the residue. No end group written: not given here. *: point of attachment. C18 diacid = O=C(O)CCCCCCCCCCCCCCCCC(=O)*; αMePhe(2-F) = C[C@](N)(Cc1ccccc1F)C(=O)O; γGlu = O=C(O)[C@H](CCC(=O)[*:2])N[*:1]; αMe4Pal = C[C@](N)(Cc1ccncc1)C(=O)O; αMeY = C[C@](N)(Cc1ccc(O)cc1)C(=O)O; 4Pal = N[C@@H](Cc1ccncc1)C(=O)O; αMeL = CC(C)C[C@](C)(N)C(=O)O; αMeS = C[C@](N)(CO)C(=O)O; Orn = NCCC[C@H](N)C(=O)O; AEEA = NCCOCCOCC(=O)O; Aib = CC(C)(N)C(=O)O
REPORTED METRIC: EC50 (nM)
Could you give me the number in nM? Just the number is fine.

Inquiry: Dear colleague, I am looking for the recorded EC50 of the following substance: H-Y[Aib]QGT[αMePhe(2-F)]TSD[4Pal][αMeS]I[αMeL]LD[Orn]K([γGlu-γGlu-C18 diacid])AA[Aib]EFI[dE][αMeY]LIEGGPSSGAPPPSGGGE-NH2 [Example 747]
Reply text: 1.71

Inquiry: Entry to check: H-Y[Aib]QGT[αMePhe(2-F)]TSD[4Pal][αMeS]I[αMeL]LD[Orn]K([AEEA-γGlu-C18 diacid])AQ[αMe4Pal]EFI[dE][αMeY]LVEGGPSSGEPPPSGS-NH2 [Example 733]
Reply text: 1.6

Inquiry: Next entry: Y[Aib]QGT[αMePhe(2-F)]TSD[4Pal]SI[αMeL]LD[Orn]K([AEEA-γGlu-C18 diacid])AQ[αMe4Pal][Orn]FI[dE][αMeY]LIEGGPSSGEPPPEGTE-NH2 [Example 679]
Reply text: 3.22
